subject-of-test: Peroxisome proliferator-activated receptor gamma (Homo sapiens)
method-summary: Partial agonist activity at GST-tagged PPAR-gamma ligand binding domain (unknown origin) assessed as recruitment of fluorescein-labeled PRIP/RAP250 coactivator peptide by LanthaScreen TR-FRET Coactivator assay
pEC50: −log10 of the molar value.

chem-smiles | pEC50
COc1cc2ccc(=O)oc2cc1OC/C=C(\C)CCC=C(C)C | 4.76

* * *

subject-of-test: Peroxisome proliferator-activated receptor gamma (Homo sapiens, UniProt P37231)
Sequence (P37231 whole entry, the tested form may be a part): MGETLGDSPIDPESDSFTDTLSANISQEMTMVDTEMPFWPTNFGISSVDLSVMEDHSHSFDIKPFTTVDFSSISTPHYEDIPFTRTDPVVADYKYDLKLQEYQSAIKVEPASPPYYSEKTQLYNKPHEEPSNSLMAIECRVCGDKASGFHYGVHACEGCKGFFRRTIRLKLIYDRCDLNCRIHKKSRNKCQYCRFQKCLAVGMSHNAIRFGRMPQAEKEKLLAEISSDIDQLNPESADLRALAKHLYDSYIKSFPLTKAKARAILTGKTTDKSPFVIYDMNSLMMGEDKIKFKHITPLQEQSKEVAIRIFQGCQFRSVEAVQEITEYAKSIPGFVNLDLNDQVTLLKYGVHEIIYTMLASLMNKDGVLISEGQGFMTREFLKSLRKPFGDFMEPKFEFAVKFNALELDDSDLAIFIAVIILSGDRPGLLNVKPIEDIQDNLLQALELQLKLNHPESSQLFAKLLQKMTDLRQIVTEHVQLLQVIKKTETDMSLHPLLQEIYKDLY
method-summary: Partial agonist activity at GST-tagged PPAR-gamma ligand binding domain (unknown origin) assessed as recruitment of fluorescein-labeled SRC3 coactivator peptide by LanthaScreen TR-FRET Coactivator assay
recorded-metric: EC50

chem-smiles | experimental-value
COc1cc2ccc(=O)oc2cc1OC/C=C(\C)CCC=C(C)C | > 30 µM

* * *

subject-of-test: Peroxisome proliferator-activated receptor gamma (Homo sapiens)
method-summary: Agonist activity at PPARgamma in human BMMSC cells assessed as promotion of adiponectin secretion by measuring increase in adiponectin level in presence of IDX medium by ELISA
Assay type: cell-based
pEC50: −log10 of the molar value.
// values below are reported pEC50
recorded-metric: pEC50

compound | experimental-value
COc1cc2ccc(=O)oc2c(OC)c1OC/C=C(\C)CCC=C(C)C | < 4.52
CC(C)=CCC/C(C)=C/COc1ccc2ccc(=O)oc2c1 | < 4.52
COc1ccc(Cl)cc1C(=O)NCCc1ccc(S(=O)(=O)NC(=O)NC2CCCCC2)cc1 [GLYBURIDE] | 5.64

* * *

subject-of-test: Peroxisome proliferator-activated receptor gamma (Homo sapiens, UniProt P37231)
method-summary: Partial agonist activity at PPARgamma in human BMMSC cells assessed as promotion of adiponectin secretion by measuring increase in adiponectin level in presence of IDX medium by ELISA
Assay type: cell-based
pEC50: −log10 of the molar value.
recorded-metric: pEC50

chem-smiles | recorded-metric | experimental-value
COc1cc2ccc(=O)oc2cc1OC/C=C(\C)CCC=C(C)C | pEC50 | 4.59

* * *

System: Mesenchymal stem cells
method-summary: Cytotoxicity against human BMMSC cells assessed as reduction in cell viability at 10 uM incubated for 72 hrs by CCK8 assay
Format: toxicity, cell-based

molecule | subject-of-test | Activity
COc1cc2ccc(=O)oc2cc1OC/C=C(\C)CCC=C(C)C | Mesenchymal stem cells | Non-Toxic
O=c1ccc2cc3ccoc3cc2o1 [PSORALEN] | Mesenchymal stem cells | Non-Toxic
CC(C)=CCOc1c2occc2cc2ccc(=O)oc12 [PENTOSALEN] | Mesenchymal stem cells | Non-Toxic
COc1c(CC(=O)C(C)C)c(=O)[nH]c2c(OC)cccc12 | Mesenchymal stem cells | Non-Toxic
C=C(C)C(CC/C(C)=C/COc1c(OC)cc2ccc(=O)oc2c1OC)OO (stereo unspecified) | Mesenchymal stem cells | Non-Toxic
COc1c(CC(=O)C(C)C)c(=O)n(C)c2ccccc12 | Mesenchymal stem cells | Non-Toxic
C=C[C@]1(C)C[C@H](O)[C@@H](C(C)(C)O)C[C@H]1C(=C)C | Mesenchymal stem cells | Non-Toxic
COc1ccc(-c2cc(=O)c3c(O)c(OC)ccc3n2C)cc1 | Mesenchymal stem cells | Non-Toxic
COc1cc2ccc(=O)oc2c(OC)c1OC/C=C(\C)CCC=C(C)C [ALTISSIMACOUMARIN D] | Mesenchymal stem cells | Non-Toxic
COc1c(CC(=O)C(C)C)c(=O)n(C)c2c(OC)cccc12 [ORIXALONE A] | Mesenchymal stem cells | Non-Toxic
COc1c(CC=C(C)C)c(=O)n(C)c2c(OC)cccc12 | Mesenchymal stem cells | Non-Toxic

Data provenance is ChEMBL document CHEMBL5226363.
